EXPERIMENTAL_PARAMETERS: in methanol, 317.6 K
PARAMETER_MEASURED: solubility (mole fraction)
Answer field: number only, no words.

get_value(item= O=P1(c2cc(O)ccc2O)Oc2ccccc2-c2ccccc21 (stereo unspecified) , readout=solubility (mole fraction)) returns 0.0026

---

EXPERIMENTAL_PARAMETERS: in 2-ethoxyethanol, 357.7 K
PARAMETER_MEASURED: solubility (mole fraction)
Answer field: number only, no words.

get_value(item= O=P1(c2cc(O)ccc2O)Oc2ccccc2-c2ccccc21 (stereo unspecified) , readout=solubility (mole fraction)) returns 0.0207

---

EXPERIMENTAL_PARAMETERS: in 2-ethoxyethanol, 362.67 K
PARAMETER_MEASURED: solubility (mole fraction)
Answer field: number only, no words.

get_value(item= O=P1(c2cc(O)ccc2O)Oc2ccccc2-c2ccccc21 (stereo unspecified) , readout=solubility (mole fraction)) returns 0.0249
